List of GI50 values.
- Tested on: PC-3
- protocol_details: Growth inhibition of human PC-3 cells measured after 48 hrs by SRB assay
- Assay type: functional
API: value field is a number in µM; no unit string.

`C[C@]12CC[C@H]3[C@@H](CC[C@H]4C[C@@H](O)CC[C@@]43C=O)[C@@]1(O)CC[C@@H]2c1ccc(=O)oc1` on PC-3 gives GI50 = 3.53

Hey, PC-3 data for `C[C@]12CC[C@@H](O)C=C1CC[C@@H]1[C@@H]2[C@@H](O)C[C@]2(C)[C@@H](c3ccc(=O)oc3)CC[C@]12O` : GI50 came out at 1.88

The recorded GI50 with PC-3 for `CC(=O)OC[C@H]1O[C@@H](O[C@@H]2C=C3CC[C@@H]4[C@H]([C@@H](O)C[C@]5(C)[C@@H](c6ccc(=O)oc6)CC[C@]45O)[C@@]3(C)CC2)[C@H](OC(C)=O)[C@@H](OC(C)=O)[C@@H]1OC(C)=O` was 0.247

// returns GI50 for `CCO[C@H]1C=C2CC[C@@H]3[C@H]([C@@H](O)C[C@]4(C)[C@@H](c5ccc(=O)oc5)CC[C@]34O)[C@@]2(C)CC1` with PC-3; value = 0.839

Assay PC-3, sample `CCO[C@@H]1C=C2CC[C@@H]3[C@H]([C@@H](O)C[C@]4(C)[C@@H](c5ccc(=O)oc5)CC[C@]34O)[C@@]2(C)CC1` , GI50 read: 0.145

GI50 on PC-3 for `C[C@]12CC[C@H](O[C@@H]3O[C@H](CO)[C@@H](O)[C@H](O)[C@H]3O)C=C1CC[C@@H]1[C@@H]2[C@@H](O)C[C@]2(C)[C@@H](c3ccc(=O)oc3)CC[C@]12O` is 0.046

Tested on PC-3, the item `C[C@]12CC[C@H](O)C=C1CC[C@@H]1[C@@H]2[C@@H](O)C[C@]2(C)[C@@H](c3ccc(=O)oc3)CC[C@]12O` showed GI50 equal to 1.33

Entry `C[C@]12C[C@H](O)[C@H]3[C@@H](CCC4=C[C@@H](O[C@@H]5O[C@H](CO)[C@@H](O)[C@H](O)[C@H]5O)CC[C@@]43CO)[C@@]1(O)CC[C@@H]2c1ccc(=O)oc1` , PC-3 data, GI50 value: 0.013

====

- Test system: HCC 2998
- protocol_details: Growth inhibition of human HCC 2998 cells measured after 48 hrs by SRB assay
- Assay type: functional
property_label: GI50 (nM)
Give the value in nM but do not write nM after it.

INSERT INTO assay_data (compound_structure_string, value_observed) VALUES
  ('C[C@]12C[C@H](O)[C@H]3[C@@H](CCC4=C[C@@H](O[C@@H]5O[C@H](CO)[C@@H](O)[C@H](O)[C@H]5O)CC[C@@]43CO)[C@@]1(O)CC[C@@H]2c1ccc(=O)oc1', 52);

The measured GI50 that `C[C@]12CC[C@H](O[C@@H]3O[C@H](CO)[C@@H](O)[C@H](O)[C@H]3O)C=C1CC[C@@H]1[C@@H]2[C@@H](O)C[C@]2(C)[C@@H](c3ccc(=O)oc3)CC[C@]12O` showed for HCC 2998 is 136

Result for `C[C@]12CC[C@@H](O)C=C1CC[C@@H]1[C@@H]2[C@@H](O)C[C@]2(C)[C@@H](c3ccc(=O)oc3)CC[C@]12O` , tested on HCC 2998, GI50: 7850
